tested on: Saccharomyces cerevisiae; assay: protein stability index of tFT-peptide fusion (C-terminal peptide) (PSI (0-1 scale)); higher = more stable (slower turnover); conditions: genetic background: wild type; temperature: 30 C;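 note: PSI is a weighted mean of sequencing reads over stability bins, variants kept only with over 10 reads, mCherry proximal and sfGFP distal, peptide attached via GGGS linker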
sequences and their reported protein stability index

{"macromolecule sequence": "RDSMVFEVRYSQ", "protein stability index": 0.698}
{"macromolecule sequence": "VGDIGLEVKLFF", "protein stability index": 0.72}
{"macromolecule sequence": "SLLPGGHRWAGI", "protein stability index": 0.659}
{"macromolecule sequence": "MEDSRSDSSGSP", "protein stability index": 0.653}
{"macromolecule sequence": "VGAGRGKGRGGG", "protein stability index": 0.617}
{"macromolecule sequence": "VFITSLWTPLLL", "protein stability index": 0.617}

q: Please report protein stability index with Saccharomyces cerevisiae for item `PEGLKKKKEKRI` .
a: 0.706

q: Fetch value of protein stability index on Saccharomyces cerevisiae for `LPLYSFSVDFSF` .
a: 0.576

q: Under Saccharomyces cerevisiae: report protein stability index of `LHKSINPSPHPP` .
a: 0.686

###

tested on: Saccharomyces cerevisiae; experiment: protein stability index of tFT-peptide fusion (C-terminal peptide) (PSI (0-1 scale)); higher = more stable (slower turnover); details: genetic background: wild type; temperature: 30 C
Values of protein stability index greater than or equal to 0.7 map to satisfied; values below map to not satisfied.

Before answering, review these 10 worked examples.
{"macromolecule sequence": "LGIRFPLSNELI", "class label": "satisfied"}
{"macromolecule sequence": "FLPGEAVFVYCR", "class label": "not satisfied"}
{"macromolecule sequence": "LLFDQTRIGMDV", "class label": "not satisfied"}
{"macromolecule sequence": "LFSRSSHGRFLT", "class label": "not satisfied"}
{"macromolecule sequence": "FLSEFFMPSPFP", "class label": "satisfied"}
{"macromolecule sequence": "MGGLFGWLVFWI", "class label": "not satisfied"}
{"macromolecule sequence": "EEECSTPWGIRG", "class label": "not satisfied"}
{"macromolecule sequence": "YREPKISEMLQE", "class label": "not satisfied"}
{"macromolecule sequence": "GSSAEGKALTES", "class label": "not satisfied"}
{"macromolecule sequence": "RCSLFAKQVVSL", "class label": "not satisfied"}

q: Test whether the sequence `VRLIQLLFTLRT` records protein stability index of 0.7 or higher.
a: not satisfied

q: Please indicate if the recorded protein stability index for `KKLSSRTQGLHG` meets or exceeds 0.7.
a: satisfied

q: I'd appreciate it if you could say whether `LPAPSPPSFPAP` has protein stability index at least equal to 0.7.
a: satisfied

###

tested on: Saccharomyces cerevisiae; test: protein stability index of tFT-peptide fusion (C-terminal peptide) (PSI (0-1 scale)); higher = more stable (slower turnover); conditions: genetic background: wild type; temperature: 30 C
So basically, the class depends on measured protein stability index, and the ranges are class A = under 0.2, class B = from 0.2 up to 0.3, class C = 0.3 and over

q: Which bin should I file `KRSPPPATPSSG` under?
a: class C

q: For the record `VFCFCRFHFFCA` , report the class its protein stability index corresponds to.
a: class C

###

system: Saccharomyces cerevisiae; assay: protein stability index of tFT-peptide fusion (C-terminal peptide) (PSI (0-1 scale)); higher = more stable (slower turnover); details: genetic background: wild type; temperature: 30 C
Kind request: treat 0.7 as inclusive, so protein stability index at 0.7 or higher is True, anything lower is False.

Example cases with answers are listed next.
{"macromolecule sequence": "VCGGRLVGWGGW", "class label": "True"}
{"macromolecule sequence": "RCLGFSACPATY", "class label": "True"}

q: protein stability index >= 0.7 for `VCFWCLYVMFSL` ?
a: False

q: Decide: protein stability index of `EGDQSRMTQPRG` >= 0.7?
a: False

q: Hi, just wondering whether `YSALHNPPQPVT` shows protein stability index of 0.7 or higher.
a: True

q: Please tell me: is the sequence `LSFLSDFCLWVL` at or over 0.7 in terms of protein stability index?
a: False
